Target: T1, orthogonal hCD122 receptor (hoRb), hCD122 with H133D and Y134F (human, UniProt P14784 27-550)
T1 sequence: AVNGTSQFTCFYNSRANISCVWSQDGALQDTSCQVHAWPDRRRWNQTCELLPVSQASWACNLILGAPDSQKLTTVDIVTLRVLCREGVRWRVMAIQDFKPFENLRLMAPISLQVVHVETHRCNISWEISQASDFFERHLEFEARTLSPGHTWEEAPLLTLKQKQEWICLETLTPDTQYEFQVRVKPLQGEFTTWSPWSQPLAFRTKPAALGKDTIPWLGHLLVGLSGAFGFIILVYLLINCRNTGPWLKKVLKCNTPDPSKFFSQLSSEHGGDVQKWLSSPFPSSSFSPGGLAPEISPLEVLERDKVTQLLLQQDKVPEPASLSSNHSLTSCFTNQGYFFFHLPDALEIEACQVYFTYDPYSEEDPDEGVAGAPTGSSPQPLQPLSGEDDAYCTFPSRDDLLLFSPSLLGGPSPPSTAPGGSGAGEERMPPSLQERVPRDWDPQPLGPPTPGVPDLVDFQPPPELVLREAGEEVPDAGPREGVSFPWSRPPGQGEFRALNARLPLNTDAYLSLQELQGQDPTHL
Test: cell-based or functional assay
property: NKL Ortho Proliferation Signal 1:50

Consider the following illustrative entries.
binder	result
I92F, SQVLKA (ligand) APTSSSTKKTQLQLSQLLVLLKAILNGINNYKNPKLTRMLTFKFYMPKKATELKHLQCLEEELKPLEEVLNLAQSKNFHLRPRDLISNINVFVLELKGSETTFMCEYADETATIVEFLNRWITFCQSIISTLT	12800
KQVLKA (ligand) APTSSSTKKTQLQLKQLLVLLKAILNGINNYKNPKLTRMLTFKFYMPKKATELKHLQCLEEELKPLEEVLNLAQSKNFHLRPRDLISNINVIVLELKGSETTFMCEYADETATIVEFLNRWITFCQSIISTLT	38900
Δ88N, SQVLKA (ligand) APTSSSTKKTQLQLSQLLVLLKAILNGINNYKNPKLTRMLTFKFYMPKKATELKHLQCLEEELKPLEEVLNLAQSKNFHLRPRDLISINVIVLELKGSETTFMCEYADETATIVEFLNRWITFCQSIISTLT	6690
SQVLNA (ligand) APTSSSTKKTQLQLSQLLVLLNAILNGINNYKNPKLTRMLTFKFYMPKKATELKHLQCLEEELKPLEEVLNLAQSKNFHLRPRDLISNINVIVLELKGSETTFMCEYADETATIVEFLNRWITFCQSIISTLT	17300
R38W, SQVLKA (ligand) APTSSSTKKTQLQLSQLLVLLKAILNGINNYKNPKLTWMLTFKFYMPKKATELKHLQCLEEELKPLEEVLNLAQSKNFHLRPRDLISNINVIVLELKGSETTFMCEYADETATIVEFLNRWITFCQSIISTLT	11500
ΔA1, SQVLKA (ligand) PTSSSTKKTQLQLSQLLVLLKAILNGINNYKNPKLTRMLTFKFYMPKKATELKHLQCLEEELKPLEEVLNLAQSKNFHLRPRDLISNINVIVLELKGSETTFMCEYADETATIVEFLNRWITFCQSIISTLT	13800
ΔD20, SQV_KA (ligand) APTSSSTKKTQLQLSQLLVLKAILNGINNYKNPKLTRMLTFKFYMPKKATELKHLQCLEEELKPLEEVLNLAQSKNFHLRPRDLISNINVIVLELKGSETTFMCEYADETATIVEFLNRWITFCQSIISTLT	8690
Q126R, SQVLKA (ligand) APTSSSTKKTQLQLSQLLVLLKAILNGINNYKNPKLTRMLTFKFYMPKKATELKHLQCLEEELKPLEEVLNLAQSKNFHLRPRDLISNINVIVLELKGSETTFMCEYADETATIVEFLNRWITFCRSIISTLT	6650

(P) L18S, SQVLKA (ligand) APTSSSTKKTQLQLSQLSVLLKAILNGINNYKNPKLTRMLTFKFYMPKKATELKHLQCLEEELKPLEEVLNLAQSKNFHLRPRDLISNINVIVLELKGSETTFMCEYADETATIVEFLNRWITFCQSIISTLT
(Q) L18Q, SQVLKA (ligand) APTSSSTKKTQLQLSQLQVLLKAILNGINNYKNPKLTRMLTFKFYMPKKATELKHLQCLEEELKPLEEVLNLAQSKNFHLRPRDLISNINVIVLELKGSETTFMCEYADETATIVEFLNRWITFCQSIISTLT
(R) R81D, SQVLKA (ligand) APTSSSTKKTQLQLSQLLVLLKAILNGINNYKNPKLTRMLTFKFYMPKKATELKHLQCLEEELKPLEEVLNLAQSKNFHLDPRDLISNINVIVLELKGSETTFMCEYADETATIVEFLNRWITFCQSIISTLT
(S) Q126T, SQVLKA (ligand) APTSSSTKKTQLQLSQLLVLLKAILNGINNYKNPKLTRMLTFKFYMPKKATELKHLQCLEEELKPLEEVLNLAQSKNFHLRPRDLISNINVIVLELKGSETTFMCEYADETATIVEFLNRWITFCTSIISTLT
### Prompt # rank_down: sort by NKL Ortho Proliferation Signal 1:50, max first // list labels; follow requested order
### Response R, Q, P, S
(R: 44400, Q: 21400, P: 11500, S: 5180)
